Target: Cdk2(S276C) (C177A) (Homo sapiens, UniProt P24941, C177A/S276C)
Construct: poly-histidine; made in house; host or cells: E. coli
Experiment: Kinetic thiol consumption assay with Cdk2 mutant S276C
Type: binding
Parameters: key: rate constant with Cdk2 ÷ rate constant with model thiol (fold)
Conditions: Cdk2 S276C, additional mutation C177A
measured-metric: Rate enhancement, Cdk2 S276C
Answer with the value's number alone.

compound | Rate enhancement, Cdk2 S276C
C=CC(=O)Nc1cccc(C(F)(F)F)c1 [BN-80] | 0.6024
C=CC(=O)NCC1CN(C2CC2)CCO1 (stereo not drawn) [CA-038] | 0.5828

Let us examine a further case.
Problem: Need Rate enhancement, Cdk2 S276C of C=CC(=O)N1CCCN2C(=O)CCC12c1ccc(OC)cc1 (stereo not drawn) [EL-1168] , thanks.
Solution: 0.6022

The reported measurements were obtained from patent US11415579B2.
